Parameter: IC50. Scope: all listed entries.
- ASSAYED_TARGET: T1, cMetSEMA-567His8 (human, UniProt P08581 25-567, limits assumed)
- T1 construct: In the TR-FRET assay detected by anti-6xhis Europium3+; also called cMetSEMAHis; SEMA domain of c-Met; not shown: C-terminal His tag; the text says His9, the construct name says His8
- T1 sequence (P08581 25-567 limits assumed, form in doubt): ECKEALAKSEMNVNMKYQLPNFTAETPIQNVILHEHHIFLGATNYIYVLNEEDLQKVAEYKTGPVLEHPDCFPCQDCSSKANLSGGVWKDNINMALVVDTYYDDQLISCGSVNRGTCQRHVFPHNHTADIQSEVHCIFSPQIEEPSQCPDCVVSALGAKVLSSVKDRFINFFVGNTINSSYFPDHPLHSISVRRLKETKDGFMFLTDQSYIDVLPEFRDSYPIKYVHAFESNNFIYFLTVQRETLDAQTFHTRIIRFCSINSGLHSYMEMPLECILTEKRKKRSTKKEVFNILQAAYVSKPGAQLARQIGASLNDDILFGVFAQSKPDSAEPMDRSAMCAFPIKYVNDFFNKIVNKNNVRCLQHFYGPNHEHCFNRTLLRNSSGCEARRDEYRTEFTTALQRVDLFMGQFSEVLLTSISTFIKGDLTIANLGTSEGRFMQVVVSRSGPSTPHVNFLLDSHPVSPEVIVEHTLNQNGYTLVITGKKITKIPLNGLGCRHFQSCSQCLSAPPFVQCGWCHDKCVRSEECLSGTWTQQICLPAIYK
- PROTOCOL_DESCRIPTION: TR-FRET; displacement of AlexaFluor-647-HGF from cMetSEMA-567His8
QUANTITY_MEASURED: IC50 (µg/mL)

{"BINDER": "anti-c-Met HuMab 005 (IgG1) (antibody, V domains shown, also called TH1016-005; PC1016-005) VH: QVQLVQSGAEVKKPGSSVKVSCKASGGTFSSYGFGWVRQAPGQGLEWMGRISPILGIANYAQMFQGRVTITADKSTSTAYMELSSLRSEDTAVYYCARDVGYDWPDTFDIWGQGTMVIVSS VL: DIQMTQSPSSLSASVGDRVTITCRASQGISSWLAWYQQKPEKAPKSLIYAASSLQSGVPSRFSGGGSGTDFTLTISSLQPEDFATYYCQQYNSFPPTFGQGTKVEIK", "QUANTITY_MEASURED": "IC50", "NUMBER": 0.16}
{"BINDER": "IgG1-1016-069 (antibody, V domains shown, also called clone 069; TH1016-069) VH: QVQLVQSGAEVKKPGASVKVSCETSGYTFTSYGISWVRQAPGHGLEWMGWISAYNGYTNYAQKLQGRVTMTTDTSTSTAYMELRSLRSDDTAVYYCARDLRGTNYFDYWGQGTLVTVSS VL: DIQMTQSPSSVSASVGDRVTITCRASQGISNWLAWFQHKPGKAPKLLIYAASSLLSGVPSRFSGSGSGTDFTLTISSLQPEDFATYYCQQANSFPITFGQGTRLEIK", "QUANTITY_MEASURED": "IC50", "NUMBER": 0.54}
{"BINDER": "anti-c-Met HuMab 045 (IgG1) (antibody, V domains shown, also called TH1016-045; PC1016-045) VH: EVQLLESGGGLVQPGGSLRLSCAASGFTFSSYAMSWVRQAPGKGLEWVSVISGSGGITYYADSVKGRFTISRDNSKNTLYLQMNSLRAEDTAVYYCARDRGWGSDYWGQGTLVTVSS VL: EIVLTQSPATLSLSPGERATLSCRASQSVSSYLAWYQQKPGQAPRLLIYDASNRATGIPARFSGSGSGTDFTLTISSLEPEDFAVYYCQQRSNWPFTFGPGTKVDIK", "QUANTITY_MEASURED": "IC50", "NUMBER": 0.17}

Values were extracted from patent US20150329642A1.
